- Study system: human PARG (Homo sapiens)
- Construct: human PARG from amino acid 378 to 976; GST (glutathione-S-transferase, pGEX-4T1) (N)
- Sequence (Q86W56 378-976): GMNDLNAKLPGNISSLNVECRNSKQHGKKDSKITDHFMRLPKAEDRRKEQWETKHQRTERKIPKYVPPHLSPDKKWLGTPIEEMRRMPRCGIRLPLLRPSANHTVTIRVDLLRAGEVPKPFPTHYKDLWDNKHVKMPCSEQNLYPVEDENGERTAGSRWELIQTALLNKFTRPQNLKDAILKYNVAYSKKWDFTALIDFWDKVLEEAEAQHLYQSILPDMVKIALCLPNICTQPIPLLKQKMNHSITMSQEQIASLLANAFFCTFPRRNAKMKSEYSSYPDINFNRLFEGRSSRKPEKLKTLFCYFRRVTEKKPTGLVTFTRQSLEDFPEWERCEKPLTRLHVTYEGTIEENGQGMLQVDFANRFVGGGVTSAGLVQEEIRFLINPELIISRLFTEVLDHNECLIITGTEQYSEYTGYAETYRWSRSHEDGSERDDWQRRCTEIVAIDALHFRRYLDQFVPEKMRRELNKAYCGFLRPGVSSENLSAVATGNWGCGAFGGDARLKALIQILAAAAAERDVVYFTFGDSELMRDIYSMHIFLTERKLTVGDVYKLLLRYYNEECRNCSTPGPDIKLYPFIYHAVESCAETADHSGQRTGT
- Test: PARG enzymatic assay
- Condition details: recombinant GST-fused human PARG (aa 378-976); 3H-labeled poly-(ADP-ribose) substrate; 23° C., 10 min
pIC50: −log10 of the molar value.
Observed property: pIC50

Compound	Observed property	Readout value
O=C(NCCCc1ccccc1)c1ccc2c(c1)C(Cl)(Cl)c1cc(C(=O)NCCCc3ccccc3)ccc1-2 [Example 13]	pIC50	5.37
O=C(c1cccc(C(=O)N2CCN(c3ccccc3)CC2)c1)c1cccc(C(=O)N2CCN(c3ccccc3)CC2)c1 [Example 22]	pIC50	4.77
COC(=O)c1ccc2c(c1)C(Cl)(Cl)c1cc(C(=O)OC)ccc1-2 [Example 7]	pIC50	4.34
O=C(NCCc1ccccc1)c1ccc2c(c1)C(=O)c1cc(C(=O)NCCc3ccccc3)ccc1-2 [Example 56]	pIC50	4.66
O=C(CCN1CCN(c2ccccc2)CC1)c1ccc2c(c1)Cc1cc(C(=O)CCN3CCN(c4ccccc4)CC3)ccc1O2 [Example 39]	pIC50	5.15
O=C(NCc1ccccc1)c1ccc2c(c1)-c1ccc(C(=O)NCc3ccccc3)c3cccc-2c13 [Example 23]	pIC50	4.45
O=C(NCCc1ccc(Cl)cc1Cl)c1ccc2c(c1)-c1ccc(C(=O)NCCc3ccc(Cl)cc3Cl)c3cccc-2c13 [Example 30]	pIC50	4.67
O=C(c1cccc2c1S(=O)(=O)c1c(cccc1C(=O)N1CCN(c3ccc(O)cc3)CC1)O2)N1CCN(c2ccc(O)cc2)CC1 [Example 45]	pIC50	4.42
